Hello, the source for this data is patent US11872225B2, in case you need it.

Each entry below carries its reported AC50.
- TARGET: wild type PKM2 (Homo sapiens)
- Sequence (P14618 whole entry): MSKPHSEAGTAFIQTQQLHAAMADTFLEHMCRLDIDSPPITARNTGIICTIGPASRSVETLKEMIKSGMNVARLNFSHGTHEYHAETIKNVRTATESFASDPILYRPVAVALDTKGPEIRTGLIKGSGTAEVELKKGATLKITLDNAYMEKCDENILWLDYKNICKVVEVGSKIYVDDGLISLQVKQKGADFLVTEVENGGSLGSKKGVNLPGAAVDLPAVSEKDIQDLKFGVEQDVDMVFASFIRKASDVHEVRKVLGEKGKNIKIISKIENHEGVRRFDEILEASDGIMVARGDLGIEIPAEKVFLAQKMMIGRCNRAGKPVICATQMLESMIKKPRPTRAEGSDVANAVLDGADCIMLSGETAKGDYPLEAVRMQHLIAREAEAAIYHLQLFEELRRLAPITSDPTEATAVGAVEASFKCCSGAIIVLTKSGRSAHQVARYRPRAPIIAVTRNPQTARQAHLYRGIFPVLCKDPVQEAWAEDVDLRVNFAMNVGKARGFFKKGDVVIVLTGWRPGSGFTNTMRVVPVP
- ASSAY_NOTES: PKM2 Assay (LDH/NADH-coupled, absorbance at 340 nm)
- Assay type: biochemical
- REPORTED_CONDITIONS: wild type PKM2 activation; 60 min preincubation at 25° C.; ADP 0.4 mM, PEP 0.11 mM; read-out: PKM2 WT AC50
VALUE_TYPE: AC50

* Cc1nc2c(s1)c1cnn(Cc3ccc(N)cc3)c(=O)c1n2C | > 0.8 µM
* Cc1nc2c(s1)c1cnn(CO)c(=O)c1n2C | > 0.8 µM
* Cn1c2nc(Cc3cc[nH]n3)sc2c2cnn(Cc3nc(N)ccc3F)c(=O)c21 | < 0.3 µM
* Cn1c2nc(Cc3ccc(Cl)nc3)sc2c2cnn(Cc3cccc4[nH]ncc34)c(=O)c21 | > 0.8 µM
* Cn1ccc(Cn2ncc3c4sc(Cc5n[nH]cc5F)nc4n(C)c3c2=O)n1 | < 0.3 µM

----------
Each entry below carries its reported AC50.
- TARGET: wild type PKM2 (Homo sapiens)
- ASSAY_NOTES: PKM2 Assay (LDH/NADH-coupled, absorbance at 340 nm)
- Assay type: biochemical
- REPORTED_CONDITIONS: wild type PKM2 activation; 60 min preincubation at 25° C.; ADP 0.4 mM, PEP 0.11 mM; read-out: PKM2 WT AC50
VALUE_TYPE: AC50

• Cn1c2nc([S+](C)[O-])sc2c2cnn(Cc3ccc(C#N)cc3)c(=O)c21 (centres unmarked) = 301 to 800 nM
• Cn1cc(C(=O)O)c(Cn2ncc3c4sc(Cc5cc[nH]n5)nc4n(C)c3c2=O)n1 = > 800 nM
• COC(=O)C(C(=O)OC)c1nc2c(s1)c1cnn(Cc3cccc4[nH]ncc34)c(=O)c1n2C = < 300 nM
• Cn1c2nc(Cc3cccc(N)n3)sc2c2cnn(Cc3cc[nH]n3)c(=O)c21 = < 300 nM
• Cn1c2nc([S+](C)[O-])sc2c2cnn(Cc3cnc(N)nc3)c(=O)c21 (centres unmarked) = > 800 nM
• Cn1c2nc(Cc3cc[nH]n3)sc2c2cnn(Cc3[nH]ncc3Cl)c(=O)c21 = < 300 nM
• Cn1c2nc([S+](C)[O-])sc2c2cnn(Cc3ccnc(N)c3)c(=O)c21 (centres unmarked) = 301 to 800 nM
• Cn1ccc(Cn2ncc3c4sc(Cc5cccc(N)n5)nc4n(C)c3c2=O)n1 = < 300 nM
• CSc1nc2c(s1)c1cnn(Cc3csc(-n4c(C)ccc4C)n3)c(=O)c1n2C = > 800 nM
• Cn1c2nc(Cc3csc(CO)n3)sc2c2cnn(Cc3nccs3)c(=O)c21 = < 300 nM
• Cc1nc2c(s1)c1cnn(Cc3cccc4c3cnn4C)c(=O)c1n2C = < 300 nM
• Cn1c2nc(Cc3cc[nH]n3)sc2c2cnn(Cc3ccc4scnc4c3)c(=O)c21 = < 300 nM
• Cn1c2nc(Cn3ccnc3)sc2c2cnn(Cc3ccnc(N)n3)c(=O)c21 = > 800 nM
• Cc1nc2c(s1)c1cnn(Cc3c[nH]cn3)c(=O)c1n2C = > 800 nM
• COc1ccccc1Cn1ncc2c3sc(C)nc3n(C)c2c1=O = 301 to 800 nM
• Cn1c2nc(Cc3cc[nH]n3)sc2c2cnn(Cc3cscn3)c(=O)c21 = < 300 nM
• Cn1c2nc(Cc3cc[nH]n3)sc2c2cnn(Cc3ccc(C(N)=O)cc3)c(=O)c21 = > 800 nM
